system: BRISTOL8; assay: Cytotoxic activity against human BRISTOL8 cell line was measured after 72 hr using MTT assay; assay type: functional; settings: Homo sapiens, BRISTOL8, 72 h; read-out: ED50 (the source's name)
property_label: EC50 (µg/mL)
Just the number please, in µg/mL, no unit attached.

{"molecule": "CC(C)[C@@H]1CC[C@]2(C(=O)O)CC[C@]3(C)C(CCC4[C@@]5(C)CC/C(=N\\O)C(C)(C)C5CC[C@]43C)C12 (stereo partly drawn)", "EC50 [µg/mL]": 1.6}
{"molecule": "CC1(C)C(=O)C(Br)C[C@@]2(C)C1CC[C@]1(C)C2CCC2C3[C@H](C(C)(Br)CBr)CC[C@]3(C(=O)O)CC[C@]21C (stereo partly drawn)", "EC50 [µg/mL]": 3.8}

Here is another molecule to look at.
BRISTOL8 EC50 of C=C(C)[C@@H]1CC[C@]2(C(=O)O)CC[C@]3(C)[C@H](CC[C@@H]4[C@@]5(C)CCC(=O)C(C)(C)[C@@H]5CC[C@]43C)[C@@H]12 [BETUNOLIC ACID] is 2.6
